These measurements were taken from patent US20240158446A1.

Below, each of the compounds is paired with its reported Kd value.
- Target Or Test System: GDP-bound KRAS wild-type protein (Homo sapiens)
- Protocol Text: Binding to KRAS by surface plasmon resonance (SPR), Single Cycle Kinetics
- Condition Context: SPR, Single Cycle Kinetics, 1:1 binding model; GDP-bound KRAS wild-type protein; read-out: KRAS KD
Please give a number only; it is taken to be in nM.

Worked cases, answers included:
{"columns": ["Line Notation", "Target Or Test System", "Kd, nM"],
 "data": [
  ["CCO[C@@H]1C[C@H]2C(=O)NC3(CC(C)(C)C3)C(=O)N(C)[C@@H](C3CCCC3)C(=O)N(C)[C@H](C(=O)N(CC)CC)CC(=O)N(C)[C@@H](CC)C(=O)N[C@@H]([C@@H](C)CC)C(=O)N(C)CC(=O)N(C)[C@H]3C/C=C\\CCN(C3=O)[C@@H](Cc3ccc(C(F)(F)F)cc3)C(=O)N(C)CC(=O)N[C@@H](CCc3cc(F)c(C(F)(F)F)c(F)c3)C(=O)N2C1", "GDP-bound KRAS wild-type protein (Homo sapiens)", 0.17],
  ["CCO[C@@H]1C[C@H]2C(=O)NC3(CCC3)C(=O)N(C)[C@@H](C3CCCC3)C(=O)N(C)[C@H](C(=O)N(C)C)CC(=O)N(C)[C@@H](CC3CCCC3)C(=O)N[C@@H]([C@@H](C)CC)C(=O)N(C)CC(=O)N(C)[C@H]3C/C=C\\CCN(C3=O)[C@@H](Cc3ccc(C(F)(F)F)cc3)C(=O)N(C)CC(=O)N[C@@H](CCc3ccc(Cl)c(Cl)c3)C(=O)N2C1", "GDP-bound KRAS wild-type protein (Homo sapiens)", 0.2]
]}

Which Kd is reported for this compound? "CC[C@H](C)[C@@H]1NC(=O)[C@H](CC2CC2)N(C)C(=O)C[C@@H](C(=O)N(C)C)N(C)C(=O)[C@H](C2CCCC2)N(C)C(=O)C2(CCC2)NC(=O)[C@@H]2C[C@@H](F)CN2C(=O)[C@H](CCc2cc(F)c(C(F)(F)F)c(F)c2)NC(=O)CN(C)C(=O)[C@H](Cc2ccc(C(F)(F)F)cc2)N2CC/C=C\C[C@@H](C2=O)N(C)C(=O)CN(C)C1=O" 0.022

---

- Target Or Test System: GDP-bound KRAS wild-type protein (Homo sapiens, UniProt P01116)
- Sequence (P01116 whole entry): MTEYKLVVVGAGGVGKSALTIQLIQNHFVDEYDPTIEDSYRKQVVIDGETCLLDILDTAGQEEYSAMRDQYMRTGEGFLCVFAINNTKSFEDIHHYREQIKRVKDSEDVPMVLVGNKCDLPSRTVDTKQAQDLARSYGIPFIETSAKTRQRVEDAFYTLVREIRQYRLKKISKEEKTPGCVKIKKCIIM
- Protocol Text: Binding to KRAS by surface plasmon resonance (SPR), Single Cycle Kinetics
- Condition Context: SPR, Single Cycle Kinetics, GDP-bound KRAS wild-type protein; read-out: KRAS KD
Below, each of the molecules is paired with its reported pKd value.
Remember the convention: pKd equals -log10 of concentration in molar.

Worked cases, answers included:
{"columns": ["Molecule", "pKd"],
 "data": [
  ["CCCOC[C@H]1C(=O)N[C@@H]([C@@H](C)CC)C(=O)N(C)CC(=O)N(C)[C@H]2C/C=C\\CCN(C2=O)[C@@H](Cc2ccc(C(F)(F)F)cc2)C(=O)N(C)CC(=O)N[C@@H](CCc2ccc(C(F)(F)F)c(OC)c2)C(=O)N2C[C@@H](C)C[C@H]2C(=O)NC2(CC(C)(C)C2)C(=O)N(C)[C@@H](C2CCCC2)C(=O)N(C)[C@H](C(=O)N(C)CC)CC(=O)N1C [PP1995]", 9.68],
  ["CCC[C@H]1C(=O)N[C@@H]([C@@H](C)CC)C(=O)N(C2CC2)CC(=O)N(C)[C@H]2C/C=C\\CCN(C2=O)[C@@H](Cc2ccc(C)cc2)C(=O)N(C)CC(=O)N[C@@H](CCc2ccc(C(F)(F)F)c(OC)c2)C(=O)N2C[C@H](OCC)C[C@H]2C(=O)N(C)C2(CCC2)C(=O)N(C)[C@@H](C2CCCC2)C(=O)N(C)[C@H](C(=O)N(C)C)CC(=O)N1C [PP2328]", 10.10],
  ["CCCN(C)C(=O)[C@@H]1CC(=O)N(C)[C@@H](C)C(=O)N[C@@H]([C@@H](C)CC)C(=O)N(C)CC(=O)N(C)[C@H]2C/C=C\\CCN(C2=O)[C@@H](Cc2ccc(C(F)(F)F)cc2)C(=O)N(C)CC(=O)N[C@@H](CCc2cc(F)c(C(F)(F)F)c(F)c2)C(=O)N2C[C@H](F)C[C@H]2C(=O)NC2(CC(C)(C)C2)C(=O)N(C)[C@@H](C2CCCC2)C(=O)N1C [PP1663]", 10.42],
  ["CCCN(C)C(=O)[C@@H]1CC(=O)N(C)[C@@H](CC(F)F)C(=O)N[C@@H]([C@@H](C)CC)C(=O)N(C)CC(=O)N(C)[C@H]2C/C=C\\CCN(C2=O)[C@@H](Cc2ccc(C(F)(F)F)cc2)C(=O)N(C)CC(=O)N[C@@H](CCc2cc(F)c(C(F)(F)F)c(F)c2)C(=O)N2CCC[C@H]2C(=O)NC2(CC(C)(C)C2)C(=O)N(C)[C@@H](C2CCCC2)C(=O)N1C [PP1721]", 9.52],
  ["CCO[C@@H]1C[C@H]2C(=O)NC3(CC(C)(C)C3)C(=O)N(C)[C@@H](C(CC)CC)C(=O)N(C)[C@H](C(=O)N(C)C)CC(=O)N(C)[C@@H](COC)C(=O)N[C@@H]([C@@H](C)CC)C(=O)N(C)CC(=O)N(C)[C@H]3C/C=C\\CCN(C3=O)[C@@H](Cc3ccc(C(F)(F)F)cc3)C(=O)N(C)CC(=O)N[C@@H](CCc3cc(F)c(C(F)(F)F)c(F)c3)C(=O)N2C1 [PP2121]", 8.82],
  ["CCC[C@H]1C(=O)N[C@@H]([C@@H](C)CC)C(=O)N(C2CC2)CC(=O)N(C)[C@H]2C/C=C\\CCN(C2=O)[C@@H](Cc2ccc(C(F)(F)F)cc2)C(=O)N(C)CC(=O)N[C@@H](CCc2cc(F)c(C(F)(F)F)c(F)c2)C(=O)N2C[C@H](OCC)C[C@H]2C(=O)N(C)C2(CCC2)C(=O)N(C)[C@@H](C2CCCC2)C(=O)N(C)[C@H](C(=O)N2CCCC2)CC(=O)N1C [PP3112]", 8.51],
  ["CCCO[C@H](C)[C@@H]1NC(=O)[C@H](CC(C)C)N(C)C(=O)C[C@@H](C(=O)N(C)CC)N(C)C(=O)[C@H](C2CCCC2)N(C)C(=O)C2(CC(C)(C)C2)NC(=O)[C@@H]2C[C@H](C)CN2C(=O)[C@H](CCc2ccc(C(F)(F)F)c(OC)c2)NC(=O)CN(C)C(=O)[C@H](Cc2ccc(C)cc2)N2CC/C=C\\C[C@@H](C2=O)N(C)C(=O)CN(C)C1=O [PP2416]", 9.54],
  ["CC[C@H](C)[C@@H]1NC(=O)[C@H](CC)N(C)C(=O)C[C@@H](C(=O)N(CC)CC)N(C)C(=O)[C@H](C2CCCC2)N(C)C(=O)C2(CC(C)(C)C2)NC(=O)[C@@H]2C[C@H](C)CN2C(=O)[C@H](CCc2ccc(C(F)(F)F)c(OC)c2)NC(=O)CN(C)C(=O)[C@H](Cc2ccc(C)cc2)N2CC/C=C\\C[C@@H](C2=O)N(C)C(=O)CN(C)C1=O [PP1839]", 9.51]
]}

Which pKd is reported for this molecule? CCOC[C@H]1C(=O)N[C@@H]([C@@H](C)CC)C(=O)N(C)CC(=O)N(C)[C@H]2C/C=C\CCN(C2=O)[C@@H](CC2CCC(F)(F)CC2)C(=O)N(C)CC(=O)N[C@@H](CCc2cc(F)c(C(F)(F)F)c(F)c2)C(=O)N2C[C@H](OCC)C[C@H]2C(=O)NC2(CC(C)(C)C2)C(=O)N(C)[C@@H](C(CC)CC)C(=O)N(C)[C@H](C(=O)N(C)C)CC(=O)N1C [PP2450] 9.26

Which pKd is reported for this molecule? CC[C@H](C)[C@@H]1NC(=O)[C@H](COC)N(C)C(=O)C[C@@H](C(=O)N2CCOCC2)N(C)C(=O)[C@H](C2CCCC2)N(C)C(=O)C2(CCC2)NC(=O)[C@@H]2CC(F)(F)CN2C(=O)[C@H](CCc2cc(F)c(C(F)(F)F)c(F)c2)NC(=O)CN(C)C(=O)[C@H](Cc2ccc(C(F)(F)F)cc2)N2CCCCC[C@@H](C2=O)N(C)C(=O)[C@@H]2CCN2C1=O [PP0866] 9.28

Which pKd is reported for this molecule? CC[C@H](C)[C@@H]1NC(=O)[C@H](C(C)C)N(C)C(=O)C[C@@H](C(=O)N(C)CC)N(C)C(=O)[C@H](C2CCCC2)N(C)C(=O)C2(CCC2)NC(=O)[C@@H]2C[C@H](C)CN2C(=O)[C@H](CCc2ccc(C(F)(F)F)c(OC)c2)NC(=O)CN(C)C(=O)[C@H](Cc2ccc(C(F)(F)F)cc2)N2CC/C=C\C[C@@H](C2=O)N(C)C(=O)CN(C)C1=O [PP2065] 9.66
